Cited source: ChEMBL document CHEMBL2010786

Test: Solubility of the compound in phosphate buffer at pH 6.5
Format: physicochemical

{"molecule": "CC1(C)C[C@H](O)C[C@](C)(CNc2cccc(S(N)(=O)=O)c2)C1 (relative stereo)", "solubility [µg/mL]": 141}

====

Assay: Oral bioavailability in CD1 mouse at 10 mg/kg
Assay type: ADME, organism-based
Conditions: in vivo
# bioavailability listing for each entry below

{"molecule": "CC1(C)C[C@H](O)C[C@](C)(CNc2cc(Cl)cc(S(N)(=O)=O)c2)C1", "bioavailability [%]": 55}
{"molecule": "CC1(C)C[C@H](O)C[C@](C)(CNc2cccc(S(N)(=O)=O)c2)C1 (relative stereo)", "bioavailability [%]": 75}
{"molecule": "CC1(C)C[C@H](O)C[C@](C)(CNc2ccc(Cl)c(S(N)(=O)=O)c2)C1", "bioavailability [%]": 70}
